Please provide measured Pre-emergence action against DIGSA for the entries that follow.
# Tested on: DIGSA
# Experimental Protocol: Pre-emergence action against DIGSA, 1280 g/ha
# Assay type: in vivo, Digitaria sanguinalis
# Measurement Conditions: visual scoring after about 3 weeks vs untreated controls, 100% = plants have died, 0% = like control plants
Give bare numbers, in %.

Example compounds with recorded Pre-emergence action against DIGSA:
O=C(O)COc1nn(-c2ccccc2F)c(-c2ccc(F)nc2)c1Br [VI-003]
100
O=C(O)COc1nn(-c2ccccc2F)c(-c2ccc(F)nc2)c1Br [VII-003]
100
O=C(O)COc1nn(-c2ccc(F)cc2)c(-c2ccc(F)nc2)c1I
100
C[C@@H](Oc1nn(-c2ccccc2F)c(-c2cncnc2)c1[N+](=O)[O-])C(=O)O
100
O=C(O)COc1nn(-c2ccc(F)cc2)c(-c2ccc(F)nc2)c1C(F)(F)F
100
O=C(O)C1CCN(C(=O)COc2nn(-c3ccccc3F)c(-c3cncc(F)c3)c2Br)C1 (stereo not drawn)
90
O=C(O)CNC(=O)COc1nn(-c2ccccc2F)c(-c2ccc(F)nc2)c1Br
100
CCOC(=O)COc1nn(-c2ccccc2C)c(-c2ccc(F)nc2)c1Br
100
CONC(=O)COc1nn(-c2ccc(F)cc2F)c(-c2ccc(F)cn2)c1Br
100
COC(=O)CCOC(=O)COc1nn(-c2ccccc2F)c(-c2ccc(F)nc2)c1Br
100

For the 6 compounds below, give their Pre-emergence action against DIGSA values.
1. O=C(O)C1CCCN1C(=O)COc1nn(-c2ccccc2F)c(-c2ccc(F)nc2)c1Br (stereo not drawn)
2. CCOC(=O)C(C)Oc1nn(-c2ccccc2F)c(-c2ccc(F)nc2)c1C(F)(F)F (stereo not drawn)
3. CCOC(=O)COc1nn(-c2ccccc2F)c(-c2cncnc2)c1Br
4. O=C(O)COc1nn(-c2ccc(F)cc2)c(-c2ccc(F)nc2)c1Br
5. O=C(O)COc1nn(-c2ccccc2F)c(-c2cncnc2)c1Br
6. O=C(O)COc1nn(-c2ccccc2F)c(-c2ccnnc2)c1Br

1: 90; 2: 100; 3: 90; 4: 100; 5: 100; 6: 90

For the 8 compounds below, give their Pre-emergence action against DIGSA values.
1. O=C(COc1nn(-c2ccccc2F)c(-c2ccc(F)nc2)c1Br)OCC1CCCO1 (stereo not drawn)
2. N#CCCNC(=O)COc1nn(-c2ccccc2F)c(-c2ccc(F)nc2)c1Br
3. CCOC(=O)COc1nn(-c2ccccc2C)c(-c2ccc(F)nc2)c1I
4. COC(=O)COc1nn(-c2ccccc2F)c(-c2cncc(F)c2)c1Br
5. COC(=O)COc1nn(-c2cc(F)ccc2F)c(-c2ccc(F)nc2)c1C#N
6. CONC(=O)COc1nn(-c2ccccc2F)c(-c2ccc(F)nc2)c1Br
7. COC(=O)[C@@H](C)Oc1nn(-c2cc(F)ccc2F)c(-c2cncc(F)c2)c1Br
8. N#CCCOC(=O)COc1nn(-c2ccccc2F)c(-c2ccc(F)nc2)c1Br [VII-110]

[100, 100, 100, 90, 100, 100, 100, 100]

For the 2 compounds below, give their Pre-emergence action against DIGSA values.
1. COC(=O)COc1nn(-c2c(F)cccc2F)c(-c2ccc(F)nc2)c1Br
2. COC(=O)C(C)Oc1nn(-c2ccccc2)c(-c2ccc(Cl)nc2)c1Cl (stereo not drawn)

[100, 90]

For the 8 compounds below, give their Pre-emergence action against DIGSA values.
1. COCCOC(=O)COc1nn(-c2ccccc2F)c(-c2ccc(F)nc2)c1Br
2. O=C(O)COc1nn(-c2ccccc2F)c(-c2cnccn2)c1Br
3. COC(=O)C(C)Oc1nn(-c2ccccc2)c(-c2ccc(F)nc2)c1Br (stereo not drawn) [VII-026]
4. O=C(O)C1CCN(C(=O)COc2nn(-c3ccccc3F)c(-c3cncc(F)c3)c2Br)CC1
5. O=C(COc1nn(-c2ccccc2F)c(-c2ccc(F)nc2)c1Br)OCC1OCCO1
6. O=C(COc1nn(-c2ccccc2F)c(-c2ccc(F)nc2)c1Br)NS(=O)(=O)CC(F)(F)F
7. COC(=O)CNC(=O)COc1nn(-c2ccccc2F)c(-c2ccc(F)nc2)c1Br
8. O=C(COc1nn(-c2ccccc2F)c(-c2ccc(F)cn2)c1Br)NO

1: 100; 2: 90; 3: 100; 4: 90; 5: 100; 6: 100; 7: 100; 8: 100

For the 2 compounds below, give their Pre-emergence action against DIGSA values.
1. COC(=O)[C@@H](C)Oc1nn(-c2ccccc2F)c(-c2cncnc2)c1Br
2. CCOC(=O)COc1nn(-c2ccc(F)cc2)c(-c2ccc(F)nc2)c1I

1: 100; 2: 100
